# credit: patent US7312227B2

molecular target: JNK3 (Homo sapiens); experiment: JNK3 inhibition assay (spectrophotometric coupled-enzyme assay); details: 10 nM activated JNK3, 10 μM ATP, 200 μM EGF receptor peptide, 30° C.
Sequence (P53779 whole entry): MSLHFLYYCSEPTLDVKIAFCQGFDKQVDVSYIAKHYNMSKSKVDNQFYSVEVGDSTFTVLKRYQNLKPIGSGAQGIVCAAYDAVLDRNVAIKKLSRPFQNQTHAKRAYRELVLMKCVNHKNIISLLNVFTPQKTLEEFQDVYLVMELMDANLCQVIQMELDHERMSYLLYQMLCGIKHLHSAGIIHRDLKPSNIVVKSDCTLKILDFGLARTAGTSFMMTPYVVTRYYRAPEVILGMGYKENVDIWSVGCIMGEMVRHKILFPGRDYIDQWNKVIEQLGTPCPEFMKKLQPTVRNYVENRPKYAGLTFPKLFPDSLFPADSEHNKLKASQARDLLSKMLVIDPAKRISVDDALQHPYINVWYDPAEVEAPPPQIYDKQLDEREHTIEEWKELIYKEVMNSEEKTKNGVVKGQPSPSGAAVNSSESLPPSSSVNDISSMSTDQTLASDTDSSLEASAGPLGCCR
MEASUREMENT_TYPE: Ki

test_smiles=O=C(COc1ccccc1)Nc1ccc(-c2ccnc(Nc3cccc(O)c3)n2)cc1 measurement_type=Ki result="≤ 1000 nM"

Turning to the following molecule.
What value of Ki has been recorded for this entry: Nc1cccc(Nc2nccc(-c3ccc(NC(=O)c4cccs4)cc3)n2)c1
≤ 1000 nM

* * *

Listed next: entries and their corresponding Ki.
Biological target: JAK3 (Homo sapiens)
Sequence (P52333 1-1124): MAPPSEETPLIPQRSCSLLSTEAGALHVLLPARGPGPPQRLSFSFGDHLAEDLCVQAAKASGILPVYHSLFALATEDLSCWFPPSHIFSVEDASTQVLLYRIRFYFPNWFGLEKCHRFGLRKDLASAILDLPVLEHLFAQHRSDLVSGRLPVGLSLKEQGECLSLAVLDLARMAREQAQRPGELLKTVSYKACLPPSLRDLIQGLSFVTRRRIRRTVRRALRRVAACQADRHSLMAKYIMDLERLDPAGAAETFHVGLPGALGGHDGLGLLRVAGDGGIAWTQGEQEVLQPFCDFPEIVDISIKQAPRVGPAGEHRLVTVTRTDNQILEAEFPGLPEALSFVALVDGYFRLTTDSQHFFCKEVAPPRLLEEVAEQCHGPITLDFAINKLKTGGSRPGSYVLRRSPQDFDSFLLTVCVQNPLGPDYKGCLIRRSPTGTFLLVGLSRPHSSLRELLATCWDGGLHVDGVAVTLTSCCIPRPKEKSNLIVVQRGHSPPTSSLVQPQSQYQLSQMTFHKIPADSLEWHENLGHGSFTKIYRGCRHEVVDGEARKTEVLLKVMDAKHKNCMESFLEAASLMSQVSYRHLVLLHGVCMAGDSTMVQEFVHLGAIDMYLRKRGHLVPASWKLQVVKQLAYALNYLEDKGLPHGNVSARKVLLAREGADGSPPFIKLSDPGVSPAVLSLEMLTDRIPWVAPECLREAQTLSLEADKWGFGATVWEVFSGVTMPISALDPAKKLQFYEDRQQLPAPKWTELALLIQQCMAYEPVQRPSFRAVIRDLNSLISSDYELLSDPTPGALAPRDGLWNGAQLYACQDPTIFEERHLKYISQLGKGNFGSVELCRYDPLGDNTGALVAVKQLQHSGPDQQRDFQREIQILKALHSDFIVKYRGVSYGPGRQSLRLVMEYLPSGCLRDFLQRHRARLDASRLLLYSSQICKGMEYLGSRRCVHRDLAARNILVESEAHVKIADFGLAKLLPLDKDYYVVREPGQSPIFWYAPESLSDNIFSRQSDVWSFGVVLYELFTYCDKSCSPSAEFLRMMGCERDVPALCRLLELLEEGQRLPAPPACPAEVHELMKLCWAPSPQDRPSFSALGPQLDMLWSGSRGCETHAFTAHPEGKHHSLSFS
Assay: JAK3 inhibition assay
Format: biochemical
Details: 2 μM ATP, Poly (Glu, Ala, Tyr) 6:3:1 coated plates, 60 minutes at 30° C.

compound="O=C(Nc1cccc(-c2ccnc(Nc3cccc(O)c3)n2)c1)c1ccco1 [IV-A(i)-4]" measurement_type=Ki result="≤ 1 µM"
compound="Nc1cccc(Nc2nccc(-c3ccc(NC(=O)CN4CCCC4CO)cc3)n2)c1 (centres unmarked) [IV-B(i)-9]" measurement_type=Ki result="≤ 1 µM"
compound="COc1cccc(Nc2nccc(-c3cccc(N(C)C(=O)c4ccco4)c3)n2)c1 [IV-A(i)-2]" measurement_type=Ki result="≤ 1 µM"
compound="NS(=O)(=O)c1cccc(Nc2nccc(-c3cccc(NC(=O)c4ccco4)c3)n2)c1 [IV-A(i)-1]" measurement_type=Ki result="≤ 1 µM"

# next compound below
What measured Ki goes with Nc1cccc(Nc2nccc(-c3ccc(NC(=O)CN4CCCC(CO)C4)cc3)n2)c1 (centres unmarked) [IV-B(i)-6] ?
≤ 1 µM
